assay_text: solvent given as SMILES
test_context: in CCCC(C)O
readout_label: solvation free energy, 298 K (kcal/mol)
Output spec: scalar in kcal/mol, unitless text.

Some compounds with known solvation free energy, 298 K results, for comparison:
O=C(C(=O)c1ccccc1)c1ccccc1 ... -10.9
c1ccc2c(c1)Nc1ccccc1S2 ... -12.8
O=C(O)c1cc([N+](=O)[O-])cc([N+](=O)[O-])c1 ... -13.9

Record summary for CC(=O)Oc1ccccc1C(=O)O : reported solvation free energy, 298 K = -13.3

* * *

assay_text: solvent given as SMILES
test_context: in Cc1ccc(C)cc1
readout_label: solvation free energy, 298 K (kcal/mol)
Unit kcal/mol implied. Number only.

Completed entries (count: 3):
CC(C)(C)Cl ... -3.58
ClC(Cl)(Cl)Cl ... -4.35
CC(C)CC(C)C ... -4.07

solvation free energy, 298 K measured on c1cc2c3c(cccc3c1)CC2 = -9.57

response.value for CC(C)CO (field: solvation free energy, 298 K) = -4.25

# molecule Cc1ccccc1 ; its solvation free energy, 298 K = -5.08

Looking up CCCO , I found its solvation free energy, 298 K recorded as -3.73

So for CCBr , the logged solvation free energy, 298 K turned out to be -3.41

Record O=C=O . Reported solvation free energy, 298 K: -0.45

Noted for FS(F)(F)(F)(F)F : its solvation free energy, 298 K reads 0.19
